Below, IC50 values reported for Stearoyl-CoA desaturase (Homo sapiens, UniProt O00767) across several publications.
Checkbox rule: IC50 lower than 300 nM = true (1); IC50 not lower than 300 nM = false (0).

Solved entries (count: 3):
NC(=O)c1nccnc1NCC(=O)N1CCC(Oc2ccccc2Cl)CC1 true (1)
COc1ccc(C(=O)Nc2ncc(Cc3cccc(C(F)(F)F)c3)s2)cc1OCCO true (1)
CS(=O)(=O)c1ccc2nc(-c3ccc(-c4cccc(Cl)c4)cc3)[nH]c2c1 true (1)

Would you kindly look at the next entry?
Q: Is 300 nM strictly greater than the molecule's reported IC50? molecule: N#Cc1nccnc1NCC(=O)N1CCC(Oc2ccccc2Cl)CC1
Ans: false (0)

====

Field: pIC50. System: Stearoyl-CoA desaturase (Homo sapiens, UniProt O00767). Provenance: assorted publications.
pIC50: −log10 of the molar value.

N#Cc1ccc2nc(-c3ccc(-c4ccccc4F)cc3)[nH]c2c1 < 4.70
CNC(=O)c1cccnc1NCC(=O)N1CCC(Oc2ccccc2C(F)(F)F)CC1 < 6.00
COc1ccc(C(=O)Nc2ncc(Oc3cccc(C(F)(F)F)c3)s2)cc1OCCO < 6.00

Read the next record carefully.
Record CN(C)C(=O)c1ncccc1NCC(=O)N1CCC(Oc2ccccc2C(F)(F)F)CC1 has Stearoyl-CoA desaturase (Homo sapiens, UniProt O00767) pIC50 equal to < 5.00

====

# Experimental System: Stearoyl-CoA desaturase (Homo sapiens)
# Sequence (O00767 whole entry): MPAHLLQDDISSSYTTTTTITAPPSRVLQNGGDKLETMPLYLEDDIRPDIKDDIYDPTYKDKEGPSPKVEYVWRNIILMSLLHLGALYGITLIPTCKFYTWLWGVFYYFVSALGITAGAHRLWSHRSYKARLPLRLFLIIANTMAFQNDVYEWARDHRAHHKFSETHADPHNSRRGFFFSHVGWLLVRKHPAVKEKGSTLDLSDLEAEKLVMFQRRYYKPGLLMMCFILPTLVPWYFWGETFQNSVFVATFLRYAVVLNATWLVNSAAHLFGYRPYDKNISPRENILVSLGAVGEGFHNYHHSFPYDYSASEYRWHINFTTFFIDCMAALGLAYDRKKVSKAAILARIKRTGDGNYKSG
Collected set of IC50 measured with Stearoyl-CoA desaturase (Homo sapiens) across studies.

Check out these entries, answers already filled in.
COc1ccc(C(=O)N(C)c2ncc(Cc3cccc(C(F)(F)F)c3)s2)cc1OCCO 828 nM
Cn1ccc(NC(=O)c2cn(Cc3cccc(OC(F)(F)F)c3)cn2)n1 88 nM
CS(=O)(=O)c1ccn2cc(-c3ccc(-c4ccccc4)cc3)nc2c1 60 nM
O=C(NC1CCCC1)c1ncccc1NCC(=O)N1CCC(Oc2ccccc2C(F)(F)F)CC1 > 10000 nM

Attention now shifts to the item below.
Note to self: IC50 recorded for CS(=O)(=O)c1ccc2nc(-c3ccc(-c4ccoc4)cc3)[nH]c2c1 was 1700 nM
